Molecular target: P70S6K (T412E mutant) (Homo sapiens (Human), UniProt P23443, T412E)
Sequence (P23443 whole entry T412E): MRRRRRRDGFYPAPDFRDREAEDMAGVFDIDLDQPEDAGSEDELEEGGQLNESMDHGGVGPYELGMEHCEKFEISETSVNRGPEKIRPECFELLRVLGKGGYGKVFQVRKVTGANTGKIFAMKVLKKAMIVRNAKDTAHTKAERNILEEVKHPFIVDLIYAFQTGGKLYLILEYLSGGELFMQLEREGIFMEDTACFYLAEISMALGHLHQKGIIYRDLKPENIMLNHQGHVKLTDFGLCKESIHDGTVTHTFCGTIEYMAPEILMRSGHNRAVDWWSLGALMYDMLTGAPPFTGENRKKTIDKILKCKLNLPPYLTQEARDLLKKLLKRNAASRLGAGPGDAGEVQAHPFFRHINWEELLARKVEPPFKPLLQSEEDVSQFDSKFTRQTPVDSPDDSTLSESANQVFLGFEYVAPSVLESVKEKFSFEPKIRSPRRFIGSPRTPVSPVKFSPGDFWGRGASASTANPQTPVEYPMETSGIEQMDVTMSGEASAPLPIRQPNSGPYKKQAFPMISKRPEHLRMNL
Test: P70S6K enzyme assay
Details: 3 nM P70S6K T412E mutant, 24 μM ATP, 1 μM FITC-AHA-AKRRRLSSLRA-OH substrate peptide, 90 min at 25° C.
observable: pIC50
Formally, pIC50 is defined as -log10 of the concentration c, with c in mol/L.

Recorded results for 6 compounds are shown here.
>  <compound>
NCC(c1ccccc1)N1CCN(c2ncnc(N)c2-c2ccc(F)cc2)CC1 (centres unmarked)

>  <pIC50>
8.20

$$$$
>  <compound>
CCn1cc(-c2c(N)ncnc2N2CCN(C(CN)c3ccc(C(F)(F)F)cc3)CC2)cn1 (centres unmarked)

>  <pIC50>
7.92

$$$$
>  <compound>
NCC(c1ccc(C(F)(F)F)cc1)N1CCN(c2ncnc(N)c2Cl)CC1 (centres unmarked)

>  <pIC50>
7.10

$$$$
>  <compound>
Nc1ncnc(N2CCN(C(CN3CCC3)c3cccc(C(F)(F)F)c3F)CC2)c1-c1cn[nH]c1 (centres unmarked)

>  <pIC50>
6.17

$$$$
>  <compound>
Nc1ncnc(N2CCC(C(NCC3CCNCC3)c3ccc(F)cc3)CC2)c1-c1ccc(F)cc1 (centres unmarked)

>  <pIC50>
6.70

$$$$
>  <compound>
Nc1ncnc(N2CCC(N)(CNC(=O)c3ccc(F)cc3F)C2)c1-c1ccc(F)cc1 (centres unmarked)

>  <pIC50>
8.32

$$$$

Consider the compound `NC[C@@H](c1ccc(Cl)nc1)N1CCN(c2ncnc(N)c2-c2ccc(F)cc2)CC1` and give its measured pIC50.
8.59

Recorded pIC50 for N#CC(c1ccc(Cl)cc1)N1CCN(c2ncnc(N)c2-c2ccc(F)cc2)CC1 (centres unmarked) , please?
7.17

---

Biological target: P70S6K (T412E mutant) (Homo sapiens (Human), UniProt P23443, T412E)
Test: P70S6K enzyme assay
Details: 3 nM P70S6K T412E mutant, 24 μM ATP, 1 μM FITC-AHA-AKRRRLSSLRA-OH substrate peptide, 90 min at 25° C.
Just a reminder that ties go to FALSE: only IC50 strictly below 20 nM counts as TRUE.

Sample answers from the record:
>  <compound>
Nc1ncnc(N2CCN(C(CN3CCC3)c3ccc(F)c(Cl)c3)CC2)c1-c1cn[nH]c1 (stereo not shown)

>  <cat>
FALSE

$$$$
>  <compound>
NC[C@H](c1ccc(C(F)(F)F)cc1)C1CCN(c2ncnc(N)c2-c2cn[nH]c2)CC1 (single isomer, unassigned)

>  <cat>
FALSE

$$$$
>  <compound>
NC[C@@H](c1ccc(C(F)(F)F)cc1)C1CCN(c2ncnc(N)c2-c2ccc(F)cc2)CC1

>  <cat>
TRUE

$$$$
>  <compound>
NCC(c1ccc(C(F)(F)F)cc1)N1CCN(c2ncnc(N)c2Br)CC1 (stereo not shown)

>  <cat>
TRUE

$$$$
>  <compound>
Nc1ncnc(N2CCN(C(CN3CCC3)c3ccc4c(c3)CCCC4)CC2)c1-c1ccc(N2CCNCC2)nc1 (stereo not shown)

>  <cat>
FALSE

$$$$
>  <compound>
NCC(c1ccc(C(F)(F)F)cc1)C1CCN(c2ncnc(N)c2-c2cnoc2)CC1 (stereo not shown)

>  <cat>
FALSE

$$$$
>  <compound>
Nc1ncnc(N2CCC(N)(C(=O)N[C@@H](CCO)c3ccc(C(F)(F)F)cc3)CC2)c1Cl

>  <cat>
FALSE

$$$$
>  <compound>
N#CC(c1ccc(C(F)(F)F)nc1)N1CCN(c2ncnc(N)c2-c2ccc(F)cc2)CC1 (stereo not shown)

>  <cat>
FALSE

$$$$
>  <compound>
Nc1ncnc(N2CCC(N)(CNC(=O)c3ccc(F)cc3F)C2)c1-c1ccncc1 (stereo not shown)

>  <cat>
FALSE

$$$$
>  <compound>
Nc1ncnc(N2CCN(C(CN3CCCCC3)c3ccc(F)cc3)CC2)c1Br (stereo not shown)

>  <cat>
FALSE

$$$$

Dear reviewer, please state whether COc1ccc(C(CN2CCC2)N2CCN(c3ncnc(N)c3-c3cn[nH]c3)CC2)cc1F (stereo not shown) has IC50 strictly beneath 20 nM.
FALSE

Dear reviewer, please state whether `Nc1ncnc(N2CCN(Cc3ccc(C(F)(F)F)cc3)CC2)c1-c1ccc(F)cc1` has IC50 strictly beneath 20 nM.
TRUE

Problem: For the compound Nc1ncnc(N2CCN(C(CN3CCC3)c3ccc4[nH]c(=O)sc4c3)CC2)c1-c1ccc(F)cc1 (stereo not shown) , is IC50 under 20 nM?
FALSE

State whether 20 nM exceeds IC50 recorded for NCC(c1cc(C(F)(F)F)ccc1F)N1CCN(c2ncnc(N)c2-c2ccc(F)cc2)CC1 (stereo not shown) .
TRUE

# check: IC50 < 20 nM for `NC[C@@H](c1ccc(C(F)(F)F)cc1)N1CCN(c2ncnc(N)c2-c2ccc(F)cc2)CC1`
TRUE

Does this compound meet the criterion IC50 < 20 nM? `COC[C@H](NC(=O)C1(N)CCN(c2ncnc(N)c2C#N)CC1)c1ccc(Cl)cc1`
FALSE

All values here come from patent US9321760B2.
